Listed next: entries and their corresponding pKd.
EXPERIMENTAL TARGET: T1, Rb^P R741C (human, UniProt P06400 380-788, R741C)
T1 construct: also called variant 68
T1 sequence (looked up): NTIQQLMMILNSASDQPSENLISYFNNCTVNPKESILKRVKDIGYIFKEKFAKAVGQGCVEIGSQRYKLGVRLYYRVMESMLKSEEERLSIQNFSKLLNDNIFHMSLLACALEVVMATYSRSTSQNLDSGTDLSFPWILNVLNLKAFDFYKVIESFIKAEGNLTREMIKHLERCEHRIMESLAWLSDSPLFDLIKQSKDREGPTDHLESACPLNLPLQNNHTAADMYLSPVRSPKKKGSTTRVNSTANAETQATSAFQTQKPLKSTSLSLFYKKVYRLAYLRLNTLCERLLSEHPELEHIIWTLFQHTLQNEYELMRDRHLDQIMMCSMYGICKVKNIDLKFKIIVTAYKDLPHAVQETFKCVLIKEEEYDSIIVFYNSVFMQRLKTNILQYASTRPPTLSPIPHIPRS
PROTOCOL DESCRIPTION: fluorescence polarisation; 37 °C, after the 25 °C reading ramped over 7 min to 37 °C and 2 min incubation; unlabeled Rb^P against 1.5 nM TMR-E2F1^TD or 7.5 nM TMR-E7^LxCxE; 25 mM Tris pH 8.0, 200 mM NaCl, 1 mM DTT, 0.1% Tween-20; apparent Kd
ASSAY CONDITIONS: both partners purified
No end group written: not given here. TMR = tetramethyl rhodamine dye
pKd here is simply -log10 of the concentration when that concentration is written in mol/L.

binder="{TMR}-GEGIRDLFDCDFGDLTPLD (also called E2F^TD; source: synthetic peptide, bought: GenScript) [TMR-E2F1^TD, peptide of the E2F1 transactivation domain]" result=7.19

Attention now turns to another entry.
Input: Please give the measured pKd for this binder: DLYCYEQLN (also: TMR label, position not given here, source: synthetic peptide, bought: GenScript) [TMR-E7^LxCxE, LxCxE peptide of the E7 oncoprotein from HPV]
Output: 7.64
